Where do these numbers come from? They come from patent US20110262445A1.

Target: T1, human IL-12 (human, UniProt P29460 23-328; P29459 23-219)
T1 construct: Recombinant (Peprotech); FLAG-tagged IL-12 in the flow cytometry assays, biotinylated in the IL-12Rβ2 assay; also called hIL-12
T1 sequence 1: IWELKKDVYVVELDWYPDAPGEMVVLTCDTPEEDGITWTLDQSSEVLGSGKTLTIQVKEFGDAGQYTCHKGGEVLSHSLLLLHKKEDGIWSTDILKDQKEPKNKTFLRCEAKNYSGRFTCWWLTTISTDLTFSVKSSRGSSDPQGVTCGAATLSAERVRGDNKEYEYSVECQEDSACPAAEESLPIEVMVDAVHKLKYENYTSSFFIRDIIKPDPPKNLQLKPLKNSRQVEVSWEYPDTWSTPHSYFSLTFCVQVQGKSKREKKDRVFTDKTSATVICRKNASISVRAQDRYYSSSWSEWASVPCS
T1 sequence 2: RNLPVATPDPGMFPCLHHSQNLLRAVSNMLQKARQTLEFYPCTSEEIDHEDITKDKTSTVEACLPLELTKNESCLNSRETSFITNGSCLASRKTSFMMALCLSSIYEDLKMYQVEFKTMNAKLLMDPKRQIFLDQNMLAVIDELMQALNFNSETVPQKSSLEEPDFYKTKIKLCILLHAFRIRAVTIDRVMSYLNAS
Assay: ELISA, coated IL-12
Value Kind: binding result

Antibody 131 (antibody, human IgG1, kappa, V domains shown) VH: EVQLVQSGAEVKKPGATVKISCKASGYTFSDYYLHWVRQAPEKGLEWMGWIDPENGDTEYAPKFQGRVTITADTSTDTGYLELSSLRSEDTAVYYCAANKELRYFDVWGQGTLVTVSS VL: DIQMTQSPSSVSASVGDRVTITCRASQSISINLHWYQQKSGKAPKLLIYFASQSISGVPSRFSGSGSGTDFSLTINSLQPEDFATYYCQQSNSFPLTFGGGTKVEIKR | binds
Antibody 143 (antibody, human IgG1, kappa, V domains shown) VH: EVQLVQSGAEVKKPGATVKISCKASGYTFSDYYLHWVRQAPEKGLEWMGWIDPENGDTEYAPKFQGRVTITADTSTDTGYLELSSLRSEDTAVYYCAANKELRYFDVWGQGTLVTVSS VL: DIQMTQSPSSVSASVGDRVTITCRASQSISINLHWYQQKPHKAPKLLIYFASQSISGVPSRFSGSGSGTDFSLTINSLQPEDFARYYCQQSNSFPLTFGGGTKVEIKR | binds
Antibody 144 (antibody, human IgG1, kappa, V domains shown) VH: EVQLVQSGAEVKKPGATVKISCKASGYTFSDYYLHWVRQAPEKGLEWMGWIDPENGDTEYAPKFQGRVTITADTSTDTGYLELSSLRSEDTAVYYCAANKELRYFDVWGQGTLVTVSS VL: DIQMTQSPSSVSASVGDRVTITCRASQSISINLHWYQQKPGEAPKLLIYFASQSISGVPSRFSGSGSGTDFSLTINSLQPEDFARYYCQQSNSFPLTFGGGTKVEIKR | binds
